B1: CPEB3 Ribozyme (parent)
chain: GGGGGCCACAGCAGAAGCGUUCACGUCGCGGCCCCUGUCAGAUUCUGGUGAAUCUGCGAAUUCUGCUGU

variants of: B1; assay: self-cleavage, relative activity (ratio to wild type); higher = more cleavage; co-transcriptional
recorded metric: self-cleavage
Format: numeric value only, no unit, no commentary.

mutant code | self-cleavage
A10C G41U | 0.826
G3A A16G | 0.315
G50A A59C | 0.806
G1A U62C | 0.033
G11C U61C | 0.203

stdin: Give recorded self-cleavage. G30U A52U
stdout: 0.342

stdin: Give recorded self-cleavage. U55C C57U
stdout: 0.295

stdin: Give recorded self-cleavage. A40U U61C
stdout: 0.258

Recorded values, source the RNAGym collection of RNA variant scans (doi:10.7554/elife.80360).
